target: GST-cGB-PDE5 fusion protein (cGMP binding sites of human PDE5A) (Homo sapiens); assay: cGMP binding assay (3H-cGMP competition)
Sequence (O76074 46-539 limits assumed): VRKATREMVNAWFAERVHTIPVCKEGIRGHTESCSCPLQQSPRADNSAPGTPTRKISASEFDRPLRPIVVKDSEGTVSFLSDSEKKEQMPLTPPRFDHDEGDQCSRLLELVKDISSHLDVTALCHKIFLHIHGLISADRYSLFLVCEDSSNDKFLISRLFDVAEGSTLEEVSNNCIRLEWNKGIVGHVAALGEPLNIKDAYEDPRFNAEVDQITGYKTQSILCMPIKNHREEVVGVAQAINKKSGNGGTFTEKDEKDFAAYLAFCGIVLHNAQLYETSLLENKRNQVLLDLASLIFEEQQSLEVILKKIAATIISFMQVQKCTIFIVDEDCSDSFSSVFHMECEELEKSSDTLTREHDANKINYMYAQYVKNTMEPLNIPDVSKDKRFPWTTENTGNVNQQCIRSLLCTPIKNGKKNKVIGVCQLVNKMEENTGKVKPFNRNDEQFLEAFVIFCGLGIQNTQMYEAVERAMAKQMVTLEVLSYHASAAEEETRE
MEASURED_METRIC: pKd
Answers are plain numbers, as −log10 of the molar value.

Kindly note the recorded pKd for Nc1nc2c(ncn2[C@@H]2O[C@@H]3COP(=O)(O)O[C@H]3[C@H]2O)c(=O)[nH]1 [cGMP, cyclic 3′,5′-guanosine monophosphate] , which is 5.80
